Hey, just so you know, these numbers are from paper PMC9167820.

- test target: TATA-binding protein (TBP) (Homo sapiens)
- method notes: EMSA (kinetic, kd/ka)
- measurement setup: 20 mM HEPES-KOH pH 7.6, 5 mM MgCl2, 70 mM KCl, 1 mM DTT, 100 ug/ml BSA, 0.01% NP-40, 5% 'XYZ' (so in the source), 25 C; TBP 0.4 nM; gel 5% PAGE Tris-glycine pH 8.3 …
pKd: −log10 of the molar value.
test readout: pKd

ordered residues | test readout | obs value
TCGAAAAATAAAACAAAATAAAACAT (double strand) [ASCL3 -45T>C (rs1049743008)] | pKd | 7.77
